# Test system: Microsporum gypseum
# procedure.summary: Antidermatophyte activity, plaque growth inhibition
# Type: cell-based, Microsporum gypseum CBS 130,948
# particulars: Nannizzia gypsea; 100 μg/mL, SDA; read-out: % Inhibition Growth M. gypseum
Reported inhibition at 100 µg/mL values follow for various molecules
Please reply with the bare figure in % and do not write the unit itself.

O=C(O)c1ccc2nc(-c3cccs3)sc2c1 [Compound 10b] : 18.5

Prompt: I'd like to know its inhibition at 100 µg/mL. The molecule in question is NS(=O)(=O)c1ccc2nc(-c3cccs3)sc2c1 [Compound 10c]
Completion: 12.4

Prompt: I'd like to know its inhibition at 100 µg/mL. The molecule in question is c1csc(-c2nc3ccccc3s2)c1 [Compound 10a, 2-(Thiophen-2-Yl)benzothiazole]
Completion: 70.4

Prompt: I'd like to know its inhibition at 100 µg/mL. The molecule in question is NS(=O)(=O)c1ccc2nc(-c3ccco3)sc2c1 [Compound 9c]
Completion: 17.8

Prompt: I'd like to know its inhibition at 100 µg/mL. The molecule in question is NS(=O)(=O)c1ccc2nc(-c3ccc[nH]3)sc2c1 [Compound 8c]
Completion: 23.1

Prompt: I'd like to know its inhibition at 100 µg/mL. The molecule in question is c1coc(-c2nc3ccccc3s2)c1 [Compound 9a, 2-(Furan-2-Yl)benzothiazole]
Completion: 74.8

Prompt: I'd like to know its inhibition at 100 µg/mL. The molecule in question is c1c[nH]c(-c2nc3ccccc3s2)c1 [Compound 8a, 2-(1H-Pyrrol-2-Yl)benzothiazole]
Completion: 50

Prompt: I'd like to know its inhibition at 100 µg/mL. The molecule in question is OC(Cn1cncn1)(Cn1cncn1)c1ccc(F)cc1F [Fluconazole, reference compound]
Completion: 18.2

Prompt: I'd like to know its inhibition at 100 µg/mL. The molecule in question is O=C(O)c1ccc2nc(-c3ccco3)sc2c1 [Compound 9b]
Completion: 18.1

Prompt: I'd like to know its inhibition at 100 µg/mL. The molecule in question is c1c[nH]c(-c2nc3ccccc3[nH]2)c1 [Lead 10, reference compound]
Completion: 99.1

###

# procedure.summary: Filtering parameters (in vitro SPF, UVAPF, UVA/UVB, critical wavelength) of W/O formulations on PMMA plates
# Format: physicochemical
# particulars: 3% in W/O formulation
outcome.measure: λc (nm)
Please reply with the bare figure in nm and do not write the unit itself.

Below, 4 molecules whose answers are already recorded.
O=S(=O)(O)c1ccc2[nH]c(-c3ccccc3)nc2c1 [PBSA, reference compound] : 324
c1csc(-c2nc3ccccc3s2)c1 [Compound 10a, 2-(Thiophen-2-Yl)benzothiazole] : 349
c1coc(-c2nc3ccccc3s2)c1 [Compound 9a, 2-(Furan-2-Yl)benzothiazole] : 343
c1c[nH]c(-c2nc3ccccc3s2)c1 [Compound 8a, 2-(1H-Pyrrol-2-Yl)benzothiazole] : 354

Prompt: I'd like to know its λc. The molecule in question is c1c[nH]c(-c2nc3ccccc3[nH]2)c1 [Lead 10, reference compound]
Completion: 364

###

# procedure.summary: UV spectra of compounds in solution (filtering parameters)
# Assay type: physicochemical
# particulars: MeOH
Label True when ε (molar extinction coefficient) is strictly below 30000; at or above that, label False.

O=C(O)c1ccc2nc(-c3ccc[nH]3)sc2c1 : True

Prompt: Lab log: compare recorded ε (molar extinction coefficient) with 30000; is it strictly lower for NS(=O)(=O)c1ccc2nc(-c3ccc[nH]3)sc2c1 ?
Completion: True

Prompt: Lab log: compare recorded ε (molar extinction coefficient) with 30000; is it strictly lower for O=C(O)c1ccc2nc(-c3ccco3)sc2c1 ?
Completion: True

Prompt: Lab log: compare recorded ε (molar extinction coefficient) with 30000; is it strictly lower for c1coc(-c2nc3ccccc3s2)c1 ?
Completion: False

###

# procedure.summary: Filtering parameters (in vitro SPF, UVAPF, UVA/UVB, critical wavelength) of W/O formulations on PMMA plates
# Type: physicochemical
# particulars: 1% in W/O formulation
outcome.measure: λc (nm)
Please reply with the bare figure in nm and do not write the unit itself.

Below, 4 compounds whose answers are already recorded.
O=S(=O)(O)c1ccc2[nH]c(-c3ccccc3)nc2c1 [PBSA, reference compound] : 319
c1csc(-c2nc3ccccc3s2)c1 [Compound 10a, 2-(Thiophen-2-Yl)benzothiazole] : 347
c1c[nH]c(-c2nc3ccccc3[nH]2)c1 [Lead 10, reference compound] : 341
c1c[nH]c(-c2nc3ccccc3s2)c1 : 354

Kindly consider the entry below.
Prompt: I'd like to know its λc. The compound in question is c1coc(-c2nc3ccccc3s2)c1
Completion: 337

###

Reported UVAPF values follow for various compounds
# procedure.summary: Filtering parameters (in vitro SPF, UVAPF, UVA/UVB, critical wavelength) of W/O formulations on PMMA plates
# Type: physicochemical
# particulars: 1% in W/O formulation
Give only the figure.

Below, 2 compounds whose answers are already recorded.
c1coc(-c2nc3ccccc3s2)c1 [Compound 9a, 2-(Furan-2-Yl)benzothiazole] : 1.26
O=S(=O)(O)c1ccc2[nH]c(-c3ccccc3)nc2c1 [PBSA, reference compound] : 0.94

Prompt: I'd like to know its UVAPF. The compound in question is c1c[nH]c(-c2nc3ccccc3[nH]2)c1 [Lead 10, reference compound]
Completion: 1.16

Prompt: I'd like to know its UVAPF. The compound in question is c1csc(-c2nc3ccccc3s2)c1 [Compound 10a, 2-(Thiophen-2-Yl)benzothiazole]
Completion: 1.60

Prompt: I'd like to know its UVAPF. The compound in question is c1c[nH]c(-c2nc3ccccc3s2)c1 [Compound 8a, 2-(1H-Pyrrol-2-Yl)benzothiazole]
Completion: 2.17

###

# procedure.summary: Filtering parameters (in vitro SPF, UVAPF, UVA/UVB, critical wavelength) of W/O formulations on PMMA plates
# Type: physicochemical
# particulars: 3% in W/O formulation
outcome.measure: UVA/UVB
Give only the figure.

Below, 3 compounds whose answers are already recorded.
c1csc(-c2nc3ccccc3s2)c1 [Compound 10a, 2-(Thiophen-2-Yl)benzothiazole] : 0.45
c1c[nH]c(-c2nc3ccccc3s2)c1 : 0.66
c1coc(-c2nc3ccccc3s2)c1 : 0.13

Prompt: I'd like to know its UVA/UVB. The compound in question is c1c[nH]c(-c2nc3ccccc3[nH]2)c1 [Lead 10, reference compound]
Completion: 0.75

###

Reported IC50 values follow for various molecules
# Tested on: SK-Mel 5 cells
# procedure.summary: Antiproliferative activity
# Assay type: cell-based
# particulars: Homo sapiens, read-out: IC50 SK-Mel5
Please reply with the bare figure in µM and do not write the unit itself.

Below, 3 molecules whose answers are already recorded.
c1c[nH]c(-c2nc3ccccc3s2)c1 : 41
c1c[nH]c(-c2nc3ccccc3[nH]2)c1 [Lead 10, reference compound] : 9.7
c1coc(-c2nc3ccccc3s2)c1 : 98

Kindly consider the entry below.
Prompt: I'd like to know its IC50. The molecule in question is c1csc(-c2nc3ccccc3s2)c1 [Compound 10a, 2-(Thiophen-2-Yl)benzothiazole]
Completion: 50

###

# System: CEM cells
# procedure.summary: Antiproliferative activity
# Format: cell-based
# particulars: Homo sapiens, CCRF-CEM
outcome.measure: IC50 (µM)
Please reply with the bare figure in µM and do not write the unit itself.

c1csc(-c2nc3ccccc3s2)c1 [Compound 10a, 2-(Thiophen-2-Yl)benzothiazole] : 45
c1c[nH]c(-c2nc3ccccc3[nH]2)c1 [Lead 10, reference compound] : 14

Kindly consider the entry below.
Prompt: I'd like to know its IC50. The compound in question is c1coc(-c2nc3ccccc3s2)c1 [Compound 9a, 2-(Furan-2-Yl)benzothiazole]
Completion: 41

###

# System: Microsporum canis
# procedure.summary: Antidermatophyte activity, plaque growth inhibition
# Assay type: cell-based, Microsporum canis CBS 131,110
# particulars: 100 μg/mL, SDA, read-out: % Inhibition Growth M. canis
# Method: The dermatophytes used in this study were Epidermophyton floccosum var. floccosum (Netherlands) CBS 358.93 strain, Trichophyton tonsurans (Netherlands) CBS 483.76 strain, Trichophyton mentagrophytes (Netherlands) CBS 160.66 strain, Microsporum canis (Iran) CBS 131,110 strain, and Microsporum gypseum (Iran) CBS 130,948 strain. […] The in vitro antifungal activity against the five selected dermatophytes was evaluated, as previously described, using the plaque growth inhibition method. […]
Response key: Condition met means inhibition at 100 µg/mL >= 20%; Condition not met means inhibition at 100 µg/mL < 20%.

# count of solved cases: 4
c1c[nH]c(-c2nc3ccccc3s2)c1 [Compound 8a, 2-(1H-Pyrrol-2-Yl)benzothiazole] : Condition met
O=C(O)c1ccc2nc(-c3ccc[nH]3)sc2c1 [Compound 8b] : Condition not met
c1c[nH]c(-c2nc3ccccc3[nH]2)c1 [Lead 10, reference compound] : Condition met
c1coc(-c2nc3ccccc3s2)c1 [Compound 9a, 2-(Furan-2-Yl)benzothiazole] : Condition met

Prompt: Answer whether inhibition at 100 µg/mL of O=C(O)c1ccc2nc(-c3cccs3)sc2c1 [Compound 10b] is greater than or equal to 20%.
Completion: Condition met

Prompt: Answer whether inhibition at 100 µg/mL of OC(Cn1cncn1)(Cn1cncn1)c1ccc(F)cc1F [Fluconazole, reference compound] is greater than or equal to 20%.
Completion: Condition met

Prompt: Answer whether inhibition at 100 µg/mL of NS(=O)(=O)c1ccc2nc(-c3cccs3)sc2c1 [Compound 10c] is greater than or equal to 20%.
Completion: Condition not met

Prompt: Answer whether inhibition at 100 µg/mL of O=C(O)c1ccc2nc(-c3ccco3)sc2c1 [Compound 9b] is greater than or equal to 20%.
Completion: Condition not met

Prompt: Answer whether inhibition at 100 µg/mL of c1csc(-c2nc3ccccc3s2)c1 [Compound 10a, 2-(Thiophen-2-Yl)benzothiazole] is greater than or equal to 20%.
Completion: Condition met

Prompt: Answer whether inhibition at 100 µg/mL of NS(=O)(=O)c1ccc2nc(-c3ccc[nH]3)sc2c1 [Compound 8c] is greater than or equal to 20%.
Completion: Condition met
